Test system: HCT-116
Assay: NCI tumour cell line growth inhibition, 48 h
Calls of active or inactive are those of the source. Cut-off read from the data, not from the text of the source: active = GI50 up to about 1.1 µM and inactive = higher.
PROPERTY LABEL: GI50

[[record]]
compound = "CC1(C)c2ccccc2C(O)C12CCC(=O)CC2 (stereo unspecified)"
property_label = "GI50"
result = "9.2 µM (inactive)"

[[record]]
compound = "C[C@]12Cc3cnn(-c4ccc(F)cc4)c3NC1CC[C@@H]1C2CC[C@@]2(C)C1CC[C@@H]2O (stereo partly specified)"
property_label = "GI50"
result = "3.94 µM (inactive)"

[[record]]
compound = "COc1ccc2nc3cc([N+](=O)[O-])ccc3c(NNc3ccc(Cl)cc3)c2c1"
property_label = "GI50"
result = "5.07 µM (inactive)"

[[record]]
compound = "C=C1C(C2(C)C=CC(=O)OC3(C)COC(=O)CC32)C(OC=O)C(OC(=O)C(O)C(C)CC)C2(C)C(c3ccoc3)CC(OC(C)=O)C12O (stereo unspecified)"
property_label = "GI50"
result = "49 µM (inactive)"

[[record]]
compound = "CCOP(=O)(OCC)C(c1ccccc1)N(C(=O)NC(F)(F)F)c1ccc(C)cc1 (stereo unspecified)"
property_label = "GI50"
result = "> 100 µM (inactive)"


Give GI50 for each of the items listed below.
1. CC1=C/C(=C(/c2ccc(O)c(C)c2)c2ccccc2C(=O)O)C=CC1=O
2. N=C(N)NCC[C@H](NC(=O)OCCCCCn1ccc(=O)[nH]c1=O)C(=O)O
3. O=c1c2c(no[n+]2[O-])c2ccccc2n1-c1ccccc1

Result string:
1. 18.2 µM (inactive)
2. > 100 µM (inactive)
3. 2.17 µM (inactive)
